Where do these numbers come from? They come from the RNAGym collection of RNA variant scans (doi:10.1021/acssynbio.7b00057).

Here, each record is paired with measured aptazyme ON/OFF ratio data.
B1: Pistol ribozyme (parent)
chain: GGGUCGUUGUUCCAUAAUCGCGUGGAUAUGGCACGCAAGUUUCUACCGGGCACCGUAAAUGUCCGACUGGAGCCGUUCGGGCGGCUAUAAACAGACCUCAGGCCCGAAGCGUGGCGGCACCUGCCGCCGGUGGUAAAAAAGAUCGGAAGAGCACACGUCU

Variants of: B1
protocol text: aptazyme ON/OFF ratio, guanine; higher = stronger switching; co-transcriptional cleavage with and without guanine
metric name: aptazyme ON/OFF ratio

- sequence change: "U10C U11A C12G C13U"
  metric name: "aptazyme ON/OFF ratio"
  numeric readout: 1.37
- sequence change: "U7A U8C U10A U11G C12A C13U"
  metric name: "aptazyme ON/OFF ratio"
  numeric readout: 1.22
- sequence change: "U7A U8A G9A U10A U11C C12U C13A"
  metric name: "aptazyme ON/OFF ratio"
  numeric readout: 1.17
- sequence change: "U7G U8A G9A U11C C12G C13A"
  metric name: "aptazyme ON/OFF ratio"
  numeric readout: 1.08
- sequence change: "U7A U8A G9A C12G C13A"
  metric name: "aptazyme ON/OFF ratio"
  numeric readout: 1.09
- sequence change: "U7G U8C G9A U10G C12G C13A"
  metric name: "aptazyme ON/OFF ratio"
  numeric readout: 1.12
- sequence change: "U7A G9A U10G C12U"
  metric name: "aptazyme ON/OFF ratio"
  numeric readout: 1.41
- sequence change: "U7G G9C U10A C12U C13G"
  metric name: "aptazyme ON/OFF ratio"
  numeric readout: 1.05
- sequence change: "U7G U8A G9A U10A U11G C12G C13G"
  metric name: "aptazyme ON/OFF ratio"
  numeric readout: 1.12
- sequence change: "U7C U8C G9C U10G U11C C12A C13A"
  metric name: "aptazyme ON/OFF ratio"
  numeric readout: 1.13
- sequence change: "U7G U10C U11C C13U"
  metric name: "aptazyme ON/OFF ratio"
  numeric readout: 1.05
- sequence change: "U7G U8A G9A U10A U11A C12G C13G"
  metric name: "aptazyme ON/OFF ratio"
  numeric readout: 1.15
- sequence change: "U8G G9A U10C U11C C12U"
  metric name: "aptazyme ON/OFF ratio"
  numeric readout: 1.02
- sequence change: "U8A G9U U11A C12U"
  metric name: "aptazyme ON/OFF ratio"
  numeric readout: 1.47
- sequence change: "U8C U10G C12U C13U"
  metric name: "aptazyme ON/OFF ratio"
  numeric readout: 1.2
- sequence change: "U8A G9A U10G U11G C12G C13A"
  metric name: "aptazyme ON/OFF ratio"
  numeric readout: 1.01
- sequence change: "U7C U8G U10C U11G C13U"
  metric name: "aptazyme ON/OFF ratio"
  numeric readout: 2.15
- sequence change: "U7G U8A G9U U11A C12G"
  metric name: "aptazyme ON/OFF ratio"
  numeric readout: 1.14
- sequence change: "U7G U8C U10G C12G C13G"
  metric name: "aptazyme ON/OFF ratio"
  numeric readout: 1.13
- sequence change: "U7C U8G G9C U10A C12A"
  metric name: "aptazyme ON/OFF ratio"
  numeric readout: 1.2
- sequence change: "U7G U8G G9U U10G U11C C13G"
  metric name: "aptazyme ON/OFF ratio"
  numeric readout: 1.17
- sequence change: "U8C U11C C13U"
  metric name: "aptazyme ON/OFF ratio"
  numeric readout: 1.19
